- assay-text: protein stability index of a GFP-peptide fusion (yeast GPS) (PSI 1-4); higher = more stable; sorted into four equal gates, so the index is relative within each strain
- condition-description: pdr5∆
assay-metric: protein stability index
Please reply with the value in numeric form only.

Reference set, count: 5
QSKIDLTKKKNEEINKK [SEM1] : 3.47
KTGTKPAAVFAETLKHD [RPL4B] : 1.95
SMKDRAQHAVILDQEKY [RPS25A] : 2
DEVGRRSMLTVVRNMLA [YCG1] : 2.09
ASLQQQQQQDLQQQQQV [SNF6] : 2.7

Turning to the following sequence.
## Task What value of protein stability index has been reported for the following sequence? SFDEWFNTPFANTGGQD [SNF2]
## Result 2.99

---

- assay-text: protein stability index of a GFP-peptide fusion (yeast GPS) (PSI 1-4); higher = more stable; sorted into four equal gates, so the index is relative within each strain
- condition-description: pdr5∆
assay-metric: protein stability index
Reply: number alone, nothing else.

Record excerpt, results attached:
ALPHVEINQVSLALVIR [RGR1] : 3
RQSKSSGKSNTSNDASN [ITC1] : 3.28

## Task Give its protein stability index value. Item: TRSWRPPQAGDRSLADD [RPB8]
## Result 3.09

## Task For the sequence shown here, FNVHEVPRAALEERFDP [YMR129W/POM152] , give the reported protein stability index.
## Result 3.15

---

- assay-text: protein stability index of a GFP-peptide fusion (yeast GPS) (PSI 1-4); higher = more stable; sorted into four equal gates, so the index is relative within each strain
- condition-description: san1∆
Recorded protein stability index for the following sequences

LPAAVSKSLQESGDTQE [RPC82] : 2.97
ERSLAVKYINFGKTVKD [RPC31] : 2.99
VSNNVLRRLEILVPDLY [ECM29] : 1.56

Kindly consider the entry below.
## Task What does the record list as protein stability index for IAYSDSQSSNANICLTF [SIN4] ?
## Result 2.38

---

Collected protein stability index values appear next to each entry.
- assay-text: protein stability index of a GFP-peptide fusion (yeast GPS) (PSI 1-4); higher = more stable; sorted into four equal gates, so the index is relative within each strain
- condition-description: pdr5∆
Please give the numeric answer without any surrounding text.

Some sequences with recorded protein stability index:
LSNLHESNKRYRFFKKI [SNF12] : 2.68
SHISASASPHLAPNMQL [SNF2] : 2.83
QEKMDPNNSRDDYKDLT [IRR1] : 3.27

## Task # input sequence: NSNKQAVAILADDEKSD [BRR2] ; wanted: its protein stability index
## Result 3.07

---

- assay-text: protein stability index of a GFP-peptide fusion (yeast GPS) (PSI 1-4); higher = more stable; sorted into four equal gates, so the index is relative within each strain
- condition-description: san1∆
Entries and their protein stability index values follow.
Please state the value as a number alone, without comment.

Below: 5 sequences and their reported protein stability index.
MGVPIYGIVAMAATATD [FAS2] : 1.54
KFFQKKIHLYEKKLEDY [YGL172W/NUP49] : 2.71
YVLRNVLRIPEEYLDAN [MTW1] : 3
IIKYPVAFDNINTHIET [SNF2] : 2
NVKNDVSFNDSQSMVTN [YIL149C/MLP2] : 3.07

Now examine the next entry.
## Task Requested field: protein stability index. Item: AEEALEPSYIFEYLATV [PRE4]
## Result 2.54

---

- assay-text: protein stability index of a GFP-peptide fusion (yeast GPS) (PSI 1-4); higher = more stable; sorted into four equal gates, so the index is relative within each strain
- condition-description: ubr1∆
assay-metric: protein stability index

RQGLIHQGSGGSVMSAS [SMC3] : 2.69
DTKKVKESPANDQASNE [YIL149C/MLP2] : 3.15
VDVNNKFIALCEQQPSQ [SIN4] : 3

## Task So what does the record say about protein stability index for DKETQLKKRAVSGVELR [POP7] ?
## Result 2.27

## Task Report protein stability index for PEYLAMYGLTMEWPKDM [ITC1] please.
## Result 2.14

## Task Value lookup for protein stability index; key = QLEYKRGEIREIEQVCK [MED7]
## Result 1.45

## Task Quick one: protein stability index of KFENDELAESTTTKIID [LRP1] ?
## Result 2.27

---

This section presents sequences with their documented protein stability index values.
- assay-text: protein stability index of a GFP-peptide fusion (yeast GPS) (PSI 1-4); higher = more stable; sorted into four equal gates, so the index is relative within each strain
- condition-description: ubr1∆
The answer should be a number; do not append a unit.

Known results for sequences:
EDNYNPKMQWSLQDNSA [RPN4] : 3.07
LIEKLQGFSKDTFELIK [YDL116W/NUP84] : 3.08
PLDTIETELPTLSLPDS [SMC1] : 3.09
TIQYDPPETKLPYPTYW [SNF5] : 2.94
LSGLSADKPFTRLTAYQ [YML031W/NDC1] : 2.97

## Task Given the sequence KAKNPLTHSTPKNFGIG [RPL8B] , what is its reported protein stability index?
## Result 3.08

## Task Record request: protein stability index value, item ILTPESQLKKSKAQQKT [RPL7A]
## Result 2.98

## Task Find the recorded protein stability index belonging to IDNYITNSVRLFEVNPS [SRP21] and report it.
## Result 2.28

## Task Which protein stability index is listed for QAPTTGFSFGSQLGGNK [YJL041W/NSP1] ?
## Result 3.17

---

- assay-text: protein stability index of a GFP-peptide fusion (yeast GPS) (PSI 1-4); higher = more stable; sorted into four equal gates, so the index is relative within each strain
- condition-description: ubr1∆
Reported protein stability index values for a set of sequences

Study these solved cases before continuing.
EFEIPVSFNGFKLPKKF [BRR2] : 2.91
NPIDPFNIIREFRSAAG [YDL116W/NUP84] : 3.09

Next sequence, please.
## Task What value of protein stability index has been recorded for this entry: IRNCATEAGFFAIRDDR [RPT4]
## Result 2.91

---

- assay-text: protein stability index of a GFP-peptide fusion (yeast GPS) (PSI 1-4); higher = more stable; sorted into four equal gates, so the index is relative within each strain
- condition-description: san1∆
The following sequences are listed with their measured protein stability index values.

The examples below pair each entry with its known result.
RVISEYYSRITLLRLNE [RPN5] : 1.68
GNIKDLPENIILTSLMR [CSN9] : 2.43
LRAAQQQWGNDFYKRDP [FAS2] : 2.32
VNADTVGKTVKQLIMES [NSL1] : 2.94
NIDQEGSKQADRMAKYL [PGD1] : 2.97
KYYIVSSSKSMINDENY [SRB8] : 2.43
ATQSGGVRPFGVSLLIA [PRE8] : 1.4
VRNLQGIQEVVHNTNSF [NUT1] : 2.94

## Task Requested field: protein stability index. Item: FDNKSTSEEQEALLRSL [SNF2]
## Result 2.68

## Task Suppose we examine the sequence NRHNLLNDVVSFLFSAI [SWI1] ; what protein stability index value has been reported?
## Result 2.4

## Task Which protein stability index value is on record for EVYRTSLNTKKNEKLIL [SMC3] ?
## Result 2.73

---

- assay-text: protein stability index of a GFP-peptide fusion (yeast GPS) (PSI 1-4); higher = more stable; sorted into four equal gates, so the index is relative within each strain
- condition-description: san1∆
protein stability index of 2 or higher: 1. Under 2: 0.

Some solved entries appear below for comparison.
DELVKLLLDNGFNMKKI [SRP68] : 1
TRVRLPSGAKKVISSDA [RPL2A] : 1
PDENKTRVRLPSGAKKV [RPL2A] : 1
ILKEEFPKIDSLAQNDC [RPN5] : 1
DLAMANSLRRVMIAEIP [RPB3] : 0

## Task Reported protein stability index reaches at least 2 for RNQRKGAGSIFTSHTRL [RPL2A] ?
## Result 1

## Task Determine whether this sequence has protein stability index no lower than 2: RDMIMKRNSDKVEYKIV [ITC1]
## Result 0

## Task Form field: protein stability index at least 2? Entry: NLEPLIAKLVAVLNVSP [NUT1]
## Result 0

## Task Reported protein stability index at or above 2? DLLILTRSIKEKWLLNQ [SRB6]
## Result 0

## Task # bool: protein stability index of LHPYNSRGLFEKKLMQD [YDL116W/NUP84] >= 2
## Result 1

## Task Is reported protein stability index greater than or equal to 2 here: IYDFPGTPEATKGMITN [NUT2]
## Result 1

## Task Assess whether reported protein stability index for FNRDNKVSPAAAAKKAL [RPS26B] sits at 2 or higher.
## Result 1

---

- assay-text: protein stability index of a GFP-peptide fusion (yeast GPS) (PSI 1-4); higher = more stable; sorted into four equal gates, so the index is relative within each strain
- condition-description: doa10∆
Each entry gets F if its protein stability index stays under 2, and T if its protein stability index is 2 or above.

Before answering, review these 7 worked examples.
QFMKRFPMPYENEEFIT [ECM29] : T
RFRGKRVVYLKHLEDNT [RPL6A] : T
EKIMENKYPELLGKDNE [AAR2] : T
EPLAPGNDNLIKAPTVA [YLR335W/NUP2] : T
EKTMVKKNLGRLTRLWI [PRP8] : T
GKHSIGLIWYLLAREVL [RPS0A] : F
LEWLENPSNTPDKDYLL [FAS1] : T

Consider the record given below.
## Task Check this sequence for protein stability index at or above 2: PEQVYSLLLTNVIITGS [ARP7]
## Result F
